The reported measurements were obtained from the RNAGym collection of RNA variant scans (doi:10.1126/science.aae0568).

B1: tRNA (parent)
chain: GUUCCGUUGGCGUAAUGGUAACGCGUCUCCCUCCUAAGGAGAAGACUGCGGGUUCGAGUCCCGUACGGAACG

variants of: B1; assay: yeast fitness relative to wild type (ratio to wild type); higher = fitter; tRNA-Arg(CCU), competitive growth, 37 C, YPD
Fewer inactive variants are shown than the library holds.
Recorded yeast fitness, one value per entry.

The following variants have reported results that may help.
variant_notation="C11U C29U C66G" reported_property="yeast fitness" value_observed="≤ 0.5"
variant_notation="C11G C29G C55A U64C" reported_property="yeast fitness" value_observed="≤ 0.5"
variant_notation="C4U G25C G68A" reported_property="yeast fitness" value_observed=0.976
variant_notation="C4A C61G" reported_property="yeast fitness" value_observed=0.71

Quick one: yeast fitness for G10C U13A G25A ?
0.534

Quick one: yeast fitness for C24G A36U ?
≤ 0.5

Quick one: yeast fitness for G9A A14C U32A A70G ?
≤ 0.5

Quick one: yeast fitness for U13A A42U A70G ?
0.745

Quick one: yeast fitness for U2A U8A A42U G52C ?
≤ 0.5

Quick one: yeast fitness for A42C C55G ?
0.612

Quick one: yeast fitness for G23A G41C C49G ?
0.854

Quick one: yeast fitness for U3G C30U A43U G48C G68C ?
≤ 0.5

Quick one: yeast fitness for C5A U19C G50A C55A C66A ?
≤ 0.5
